Source listed as the NIST ThermoML archive (doi:10.1016/j.jct.2011.10.027).

- RUN_CONDITIONS: 303.15 K; 101.33 kPa; Liquid; Vibrating tube method
Please respond with reported mass density for every item in the list.
Answers are plain numbers, in kg/m3.

Example results:
smiles_repr=O=[N+]([O-])c1ccccc1 measurement_type="mass density" readout_value=1193.21
smiles_repr=Cc1ccccc1C measurement_type="mass density" readout_value=871.37
smiles_repr=Cc1cccc(C)c1 measurement_type="mass density" readout_value=855.56
smiles_repr=CCc1ccccc1 measurement_type="mass density" readout_value=858.18
smiles_repr=Cc1ccc(C)cc1 measurement_type="mass density" readout_value=852.33
smiles_repr=Cc1ccccc1 measurement_type="mass density" readout_value=857.58

Could you now look at the following compound, please?
Query: For the compound shown here, "CCCCN(CCCC)CCCC" , give the reported mass density.
Reply: 769.45
